I'd appreciate it if you could supply melting point values for the items below.

O=C(Nc1ccc2c(c1)NCCC2)c1cc2cc(F)ccc2n1Cc1cccc(F)c1 : 149 to 151 °C
CC(=O)c1c(C(C)C)nn2ccccc12 : 74 °C
O=C(C(Cl)Cl)N1CCSC12CCCCC2 : 149 to 151 °C

Dear reader, for each entry below, please note its melting point.
1. CCCCCCCCCCCCCCCCNc1ccc(C(=O)OCC(CO)OC(C)=O)cc1 (stereo unspecified)
2. O=C(O)C1=Cc2cc(F)c(N3CCC4(C3)OCCCO4)nc2N(c2ccc(F)cc2F)C1
3. CCC(CC)Oc1cc(C)nc(Oc2c(C)cc(C)cc2C)c1C
4. COC(=O)Cc1ccc(OCCNC(=O)C2Cc3ccccc3N2S(=O)(=O)c2ccc(-c3cc(C(F)(F)F)ccc3C)cc2)cc1 (stereo unspecified)
5. CCc1cc2c(s1)-n1c(CCNC(=O)c3cc4ccccc4[nH]3)nnc1CN=C2c1ccccc1Cl

output:
67 °C
145 to 146 °C
72.5 to 74 °C
46 to 49 °C
174 to 178 °C

Dear reader, for each entry below, please note its melting point.
1. Nc1cc(-n2cccn2)nc(-c2ccc(Br)o2)n1
2. O=C1NC(=O)C(=Cc2ccc(OCCNc3nc4ccccc4o3)cc2)S1
3. CCn1cnc(=O)c(-c2cccc(C(F)(F)F)c2)c1
4. CCOC(=O)Nc1cc(Oc2ncccn2)c(Br)cc1F
5. COCc1cccc(C(O)c2nc(OC)cc(OC)n2)c1N (stereo unspecified)
6. NS(=O)(=O)c1cc(NC(=O)c2cnn3c(C(F)(F)F)cc(-c4ccc(C(F)(F)F)cc4)nc23)c(Cl)s1
7. COC(=O)C1(S(=O)(=O)N2CCC(c3ccc(Br)c(C)c3)CC2)CCOCC1
8. O=C(NC(=O)c1ccc(OCCn2ccnc2)cc1)c1ccccc1

output:
1. 221 to 222 °C
2. 242 to 245 °C
3. 172 to 173 °C
4. 178 °C
5. 40 to 42 °C
6. 275 °C
7. 162 to 163 °C
8. 152 to 154 °C

Dear reader, for each entry below, please note its melting point.
1. CS(=O)(=O)N(Cc1cccnc1)c1ccc(F)cc1F
2. NC(=O)c1c(I)cc(I)c(CCC(=O)O)c1I
3. CC[C@H](Cc1sccc1Cl)Nc1ncnc2c1ncn2[C@@H]1C[C@H](CF)[C@@H](O)[C@H]1O
4. CCOCCc1ccc(OCCN(C(=O)n2ccnc2)c2ncnc(C)c2Cl)c(C)c1

output:
1: 132 to 135 °C; 2: > 280 °C; 3: 143 °C; 4: 87 to 88 °C

Dear reader, for each entry below, please note its melting point.
1. COC(=O)c1ccc2[nH]c(C(=O)OCc3ccccc3)cc2c1
2. CC(C)Nc1cccnc1N1CCN(C(=O)c2ccc(C(=O)O)cc2)CC1

output:
1: 128 to 129 °C; 2: 215 to 217 °C

Dear reader, for each entry below, please note its melting point.
1. COc1ccc(CBr)cc1S(=O)(=O)NC(C)(C)C
2. O=C(Cc1ccc(F)cc1)c1ccccc1
3. CSC(=N[N+](=O)[O-])N(Cc1cnc(Cl)s1)C(C)=O
4. CSc1nnc2c(=O)c3ccc(C)cc3ccn12

output:
1: 137 to 142 °C; 2: 109 to 110 °C; 3: 77 to 78 °C; 4: 178 to 179 °C

Dear reader, for each entry below, please note its melting point.
1. NC(=O)c1cc(OCCNCC(O)c2ccccc2)ccc1O (stereo unspecified)
2. CCc1ccc(C=CC(=O)O)cc1
3. CCOC(=O)C=Cc1ccc(OCc2nc(-c3ccco3)oc2C)c(OC)c1
4. CC1(C)CCOC1(O)Cn1cncn1 (stereo unspecified)
5. CC(C)(Oc1ccc(OCc2noc(-c3ccc(C(C)(C)C)cc3)n2)cc1)C(=O)O
6. O=C(Nc1nccs1)c1nc(-c2cccc3ccccc23)[nH]c1-c1ccc([N+](=O)[O-])cc1
7. CC(C)Oc1cc(-n2c(Cl)nc(C(F)(F)F)cc2=O)c(F)cc1Cl
8. N#Cc1c(N)nc2ccc([N+](=O)[O-])cc2c1O

output:
["166 to 172 °C", "140 °C", "142 to 143 °C", "93 to 95 °C", "143 °C", "237 to 238 °C", "88 to 90 °C", "> 360 °C"]

Dear reader, for each entry below, please note its melting point.
1. Cc1cccc(N(C)c2nc(Cl)nc(Cl)n2)c1C
2. CCNC(=O)NCC(CO)c1cccc2ccc(OC)cc12 (stereo unspecified)
3. O=C(O)c1cn2c3c(c(N4CCNCC4)ccc3c1=O)CCC2

output:
140 to 141 °C
120 to 122 °C
267 to 268 °C

Dear reader, for each entry below, please note its melting point.
1. CC12CCC(=O)C=C1CCC1C2CCC2(C)C(n3ccnc3)=CCC12 (stereo unspecified)
2. CN(CCOc1ccc(C=O)cc1)c1nc2ccccc2o1
3. CC(=O)NCc1ccc2ccn(C3CCN(CCc4ccc(Br)cc4)CC3)c2c1
4. CC(=O)NC[C@H]1CN(c2ccc(N3CCC(c4noc(C)n4)CC3)c(F)c2)C(=O)O1

output:
147 to 150 °C
97 to 98 °C
140 to 141 °C
136 to 138 °C

* * *

I'd appreciate it if you could supply melting point values for the items below.

Example entries and their recorded answers appear below.
C=CCOc1ccc2cc(S(N)(=O)=O)sc2c1 : 101 to 102 °C
COC(=O)c1ccc(CNC(C)=O)cc1S(=O)(=O)NC(=O)Nc1nc(OC)cc(OC)n1 : 149 to 150 °C
Nc1cc(C(=O)CCCCCl)cc2c1OCC2 : 129 to 131 °C

Dear reader, for each entry below, please note its melting point.
1. CC(c1oc2ccccc2c(=O)c1-c1ccccc1)n1nc(-c2ccc3cn[nH]c3c2)c2c(N)ncnc21 (stereo not given)
2. CC(C)=CCNC(=O)Cn1ccnc1[N+](=O)[O-]
3. CC(C(=O)O)c1ccc(Nc2ccc(Cl)cc2)cc1 (stereo not given)
4. C[C@]1(CN2CCC(NCCc3ccc(C(F)(F)F)cc3)CC2)Cn2cc([N+](=O)[O-])nc2O1
5. COc1cc(OC)cc(C(=O)NC(NC(=NC#N)Nc2ccc(C(F)(F)F)nc2)C(C)(Cl)Cl)c1 (stereo not given)
6. CCNC1C=CC=C(Oc2ccc(F)cc2)C1(Cl)[N+](=O)[O-] (stereo not given)

output:
176 to 178 °C
174 to 176 °C
106 to 109 °C
80.7 to 84.2 °C
187 to 189 °C
69 to 70 °C

Dear reader, for each entry below, please note its melting point.
1. CSc1ccc2c(SCc3ccc(N(CCO)CCO)cc3)ccnc2c1
2. O=c1n(CC(O)c2ccccc2)c2c(Br)c(Br)c(Br)c(Br)c2n1CC(O)c1ccccc1 (stereo not given)
3. NC(=O)N(O)Cc1ccc(OCCc2csc(-c3ccccc3)n2)cc1
4. Nc1cc(CO)cc(Nc2c3ccccc3nc3occc23)c1

output:
1. 162 to 165 °C
2. 121 to 123 °C
3. 137 to 138 °C
4. 236 to 237 °C

Dear reader, for each entry below, please note its melting point.
1. CN(C)C(=O)c1nc2n(n1)-c1ccc(Cl)cc1C(c1ccccc1F)=NC2
2. Cc1ccc(N2CC(COc3ccc(C(=O)O)cc3)CC2=O)cc1 (stereo not given)
3. COc1ncccc1C(=O)NC1CN(C)CCn2c1nc(-c1ccncn1)cc2=O (racemic)

output:
1. 180 to 182 °C
2. 212 to 213 °C
3. 228 to 230 °C

Dear reader, for each entry below, please note its melting point.
1. O=c1[nH]c2cc(Cl)ccc2c(O)c1-c1cccc(Br)c1
2. COc1ccc(N(C(C)C)S(=O)(=O)c2ccc(C)cc2)c([N+](=O)[O-])c1
3. CC(C)(C)OC(=O)NCCCCNC(=O)COc1cccc(C(F)(F)F)c1
4. Cc1cc(NCc2ccccc2)c(N)c(Cl)n1

output:
1: 358 °C; 2: 148 to 150 °C; 3: 86 °C; 4: 177 to 178 °C

* * *

I'd appreciate it if you could supply melting point values for the items below.

CCCCc1c2ccccc2cc2ccccc12 : 49 °C
COc1ccc2cccc(N3CCN(CCC4CC(=O)Nc5ccccc54)CC3)c2c1 (centres undefined) : 177 to 178 °C
CC(C)CN(Cc1nc(-c2ncn3c2[C@@H]2CCN2C(=O)c2c(Cl)cccc2-3)no1)CC(C)C : 125 to 140 °C
CCCCCS(=O)(=O)NC(=O)/C=C/c1cc(OCCOC)nn1Cc1ccc(C(F)(F)F)cc1Cl : 130 to 132 °C
ClCCC(=C(c1ccccc1)c1ccc(OCCN2CCCC2)cc1)c1ccccc1 : 112 to 115 °C

Dear reader, for each entry below, please note its melting point.
1. CC1(C)OC(=O)C(Sc2nccs2)=C1c1ccc(S(C)(=O)=O)cc1
2. O=C1NC(=Cc2cccc(Cl)c2Cl)C(=O)C1=NO

output:
1: 174 to 176 °C; 2: 180 °C

Dear reader, for each entry below, please note its melting point.
1. COC(=O)c1ccc(Cc2cccc3ccc(C=C(C)C(=O)O)cc23)c(OC)c1
2. Cc1cc(C)cc(NCc2ccc3nc(NCCCN4CCOCC4)n(Cc4nc(C)ccc4O)c3c2)c1

output:
187 to 188 °C
199 °C
